Molecular target: RAF proto-oncogene serine/threonine-protein kinase (Homo sapiens) (UniProt P04049)
Sequence (P04049 whole entry): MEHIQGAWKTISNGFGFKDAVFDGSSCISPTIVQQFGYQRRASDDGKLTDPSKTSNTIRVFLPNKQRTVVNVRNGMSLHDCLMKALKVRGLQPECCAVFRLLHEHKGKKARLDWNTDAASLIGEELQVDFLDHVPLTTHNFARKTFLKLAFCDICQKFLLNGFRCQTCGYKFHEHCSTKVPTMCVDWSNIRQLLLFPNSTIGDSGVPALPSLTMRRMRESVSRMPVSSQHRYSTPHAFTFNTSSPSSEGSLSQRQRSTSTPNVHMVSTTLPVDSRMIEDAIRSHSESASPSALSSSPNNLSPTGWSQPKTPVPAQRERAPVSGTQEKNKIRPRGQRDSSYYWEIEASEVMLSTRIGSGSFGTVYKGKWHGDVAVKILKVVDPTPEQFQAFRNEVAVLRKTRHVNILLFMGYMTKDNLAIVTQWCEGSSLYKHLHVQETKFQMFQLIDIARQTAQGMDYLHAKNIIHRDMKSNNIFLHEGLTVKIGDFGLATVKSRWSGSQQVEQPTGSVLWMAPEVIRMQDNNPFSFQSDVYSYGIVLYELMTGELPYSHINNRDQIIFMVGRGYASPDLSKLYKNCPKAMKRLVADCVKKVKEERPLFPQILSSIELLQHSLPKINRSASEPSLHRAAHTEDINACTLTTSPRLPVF
Test: Inhibition of c-RAF (unknown origin) using [33P]ATP by […] assay
pIC50: −log10 of the molar value.

{"smiles-record": "Cc1cc(NC(=O)Nc2ccc(Oc3ccnc4cc5c(cc34)C(C)(C)C(=O)N5)cc2)no1", "tested-system": "RAF proto-oncogene serine/threonine-protein kinase (Homo sapiens) (UniProt P04049)", "pIC50": 7.23}
{"smiles-record": "CC1(C)C(=O)Nc2cc3nccc(Oc4ccc(NC(=O)Nc5ccc(F)c(C(F)(F)F)c5)cc4)c3cc21", "tested-system": "RAF proto-oncogene serine/threonine-protein kinase (Homo sapiens) (UniProt P04049)", "pIC50": 7.83}
{"smiles-record": "Cc1cccc(C)c1NC(=O)Nc1ccc(Oc2ccnc3cc4c(cc23)C(C)(C)C(=O)N4)c(F)c1", "tested-system": "RAF proto-oncogene serine/threonine-protein kinase (Homo sapiens) (UniProt P04049)", "pIC50": 7.52}
{"smiles-record": "Cc1cc(NC(=O)Nc2ccc(Oc3ccnc4cc5c(cc34)C(C)(C)C(=O)N5)c(Cl)c2)no1", "tested-system": "RAF proto-oncogene serine/threonine-protein kinase (Homo sapiens) (UniProt P04049)", "pIC50": 7.73}
{"smiles-record": "CC1(C)C(=O)Nc2cc3nccc(Oc4ccc(NC(=O)Nc5ccc(F)c(C(F)(F)F)c5)cc4Cl)c3cc21", "tested-system": "RAF proto-oncogene serine/threonine-protein kinase (Homo sapiens) (UniProt P04049)", "pIC50": 8.06}

Where do the numbers come from? From ChEMBL document CHEMBL3217507.
